The measured values listed here are drawn from ChEMBL document CHEMBL2086249.

# measurement_notes: Apparent permeability across apical to basolateral side of human Caco2 cells at 10 uM
# Format: ADME, cell-based
# assay_conditions: Caco-2
quantity_kind: Papp A→B at 10 µM (×10⁻⁶ cm/s)
Answers are plain numbers, in ×10⁻⁶ cm/s.

Query: Field request: Papp A→B at 10 µM | item: CC(C)c1nc(N2CCN(c3ncc(OCc4ccncc4C#N)cn3)[C@H](C)C2)no1
Response: 85

* * *

# measurement_notes: AUC (0 to 24 hrs) in Beagle dog at 5 mg/kg
# Assay type: ADME, organism-based, Canis lupus familiaris
# Set-up: time < 24 hr, dose 5 mg/kg
# assay_conditions: plasma
quantity_kind: AUC(0-t) at 24 h
In your response, put the unit directly after the numeric value.

Query: Any idea what AUC(0-t) at 24 h was measured for CC(C)c1nc(N2CCN(c3ncc(OCc4ccncc4C#N)cn3)[C@H](C)C2)no1 ?
Response: 14 µM·h
